Target: human caspase-3 (Homo sapiens, UniProt P42574)
Sequence (P42574 29-175 limits assumed): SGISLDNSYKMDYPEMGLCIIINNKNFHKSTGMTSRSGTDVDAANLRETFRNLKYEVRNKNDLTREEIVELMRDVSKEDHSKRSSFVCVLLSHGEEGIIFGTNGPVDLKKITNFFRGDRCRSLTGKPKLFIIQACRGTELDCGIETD
Sequence (P42574 176-277 limits assumed): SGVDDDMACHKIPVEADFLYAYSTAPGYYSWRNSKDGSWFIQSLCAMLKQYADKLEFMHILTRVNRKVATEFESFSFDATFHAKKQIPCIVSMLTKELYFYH
Experiment: tetrapeptide-ACC substrate cleavage kinetics
Type: biochemical
Conditions: Ac-P4-P3-P2-Asp-ACC substrate, 0.05-500 μM, 3-35 nM enzyme, 37°C, triplicate
MEASURED_PARAMETER: kcat/KM caspase-3

INSERT INTO measurements (substance, tested_on, measured) VALUES
  ('Ile-Glu-Thr-Asp', 'human caspase-3 (Homo sapiens, UniProt P42574)', '21 200 M^-1s^-1'),
  ('Tyr-Thr-Ile-Asp', 'human caspase-3 (Homo sapiens, UniProt P42574)', '9 750 M^-1s^-1'),
  ('Thr-Trp-His-Asp', 'human caspase-3 (Homo sapiens, UniProt P42574)', '26 990 M^-1s^-1'),
  ('Trp-Glu-His-Asp', 'human caspase-3 (Homo sapiens, UniProt P42574)', '8 970 M^-1s^-1'),
  ('Tyr-Val-His-Asp', 'human caspase-3 (Homo sapiens, UniProt P42574)', '1 530 M^-1s^-1'),
  ('Pro-Met-His-Asp', 'human caspase-3 (Homo sapiens, UniProt P42574)', '3 160 M^-1s^-1'),
  ('Val-Gly-His-Asp', 'human caspase-3 (Homo sapiens, UniProt P42574)', '7 360 M^-1s^-1'),
  ('Leu-Glu-Ser-Asp', 'human caspase-3 (Homo sapiens, UniProt P42574)', '950 M⁻¹ s⁻¹'),
  ('Tyr-Gln-Pro-Asp', 'human caspase-3 (Homo sapiens, UniProt P42574)', '1 920 M^-1s^-1'),
  ('Tyr-Lys-Met-Asp', 'human caspase-3 (Homo sapiens, UniProt P42574)', '50 M⁻¹ s⁻¹'),
  ('Phe-Glu-Ala-Asp', 'human caspase-3 (Homo sapiens, UniProt P42574)', '1 550 M^-1s^-1'),
  ('Phe-Leu-Thr-Asp', 'human caspase-3 (Homo sapiens, UniProt P42574)', '3 490 M^-1s^-1'),
  ('Pro-Tyr-His-Asp', 'human caspase-3 (Homo sapiens, UniProt P42574)', '2 110 M^-1s^-1'),
  ('Val-Asp-His-Asp', 'human caspase-3 (Homo sapiens, UniProt P42574)', '19 860 M^-1s^-1'),
  ('Tyr-Glu-Lys-Asp', 'human caspase-3 (Homo sapiens, UniProt P42574)', '580 M⁻¹ s⁻¹');

* * *

Each record here notes measured kcat/KM caspase-9.
Biological target: human caspase-9 (Homo sapiens, UniProt P55211)
Sequence (P55211 1-315 limits assumed): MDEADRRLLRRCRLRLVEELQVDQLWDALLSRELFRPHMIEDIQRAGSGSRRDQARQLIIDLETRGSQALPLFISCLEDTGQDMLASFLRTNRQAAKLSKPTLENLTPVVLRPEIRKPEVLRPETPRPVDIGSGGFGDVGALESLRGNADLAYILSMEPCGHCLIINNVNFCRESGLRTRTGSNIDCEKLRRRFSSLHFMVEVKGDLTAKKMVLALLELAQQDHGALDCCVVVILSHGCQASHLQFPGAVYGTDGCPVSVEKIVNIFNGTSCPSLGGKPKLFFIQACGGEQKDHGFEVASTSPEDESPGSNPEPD
Sequence (P55211 331-416 limits assumed): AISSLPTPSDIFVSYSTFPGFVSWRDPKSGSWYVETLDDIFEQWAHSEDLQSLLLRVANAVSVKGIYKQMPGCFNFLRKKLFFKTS
Experiment: tetrapeptide-ACC substrate cleavage kinetics
Format: biochemical
Settings: Ac-P4-P3-P2-Asp-ACC substrate, 0.05-500 μM, 20-150 nM enzyme, 37°C, triplicate
MEASURED_PARAMETER: kcat/KM caspase-9

INSERT INTO assay_data (substance, measured) VALUES
  ('Leu-Glu-His-Asp', '12 700 M^-1s^-1'),
  ('Pro-Tyr-His-Asp', '11 080 M^-1s^-1'),
  ('Trp-Glu-His-Asp', '8 500 M^-1s^-1'),
  ('Val-Asp-His-Asp', '6 220 M^-1s^-1'),
  ('Pro-Met-His-Asp', '13 000 M^-1s^-1'),
  ('Val-Gly-His-Asp', '3 800 M^-1s^-1'),
  ('Thr-Trp-His-Asp', '4 810 M^-1s^-1'),
  ('Ile-Glu-Thr-Asp', '2 300 M^-1s^-1'),
  ('Tyr-Val-His-Asp', '15 800 M^-1s^-1'),
  ('Val-Trp-His-Asp', '8 880 M^-1s^-1');

These entries and their values trace back to paper doi:10.1101/2025.02.11.637513v1.
